- Tested on: WT-BaF3 cells
- PROTOCOL_DESCRIPTION: Cell antiproliferative activity assay (CCK-8), WT-BaF3 (broad-spectrum cytotoxicity)
- Type: cell-based
- EXPERIMENTAL_PARAMETERS: 72 h; WT-BaF3 cells (IL-3 supplemented), CCK-8, 3 days incubation
pIC50: −log10 of the molar value.
List of pIC50 values.

[[record]]
structure_string = "Cc1nccnc1-c1cc(C2CC2)c2nc(Nc3ccc(P(C)(C)=O)c(O)c3)ncc2c1"
observed_value = "< 5.60"


Let us move to another entry and its pIC50.
Please report the recorded pIC50 for COc1nc(P(C)(C)=O)ccc1Nc1ncc2cc(-c3nccnc3C)cc(C(C)C)c2n1 .
< 5.60
